These data points were gathered from patent US20200207734A1.

OX2R agonist activity (3 μM, %) values for the compounds below.
Biological target: human orexin type 2 receptor (Homo sapiens, UniProt O43614)
Construct: human orexin type 2 receptor cDNA was inserted into pcDNA3.1(+) plasmid vector (Invitrogen); expressed in transfected cells
Sequence (O43614 1-444): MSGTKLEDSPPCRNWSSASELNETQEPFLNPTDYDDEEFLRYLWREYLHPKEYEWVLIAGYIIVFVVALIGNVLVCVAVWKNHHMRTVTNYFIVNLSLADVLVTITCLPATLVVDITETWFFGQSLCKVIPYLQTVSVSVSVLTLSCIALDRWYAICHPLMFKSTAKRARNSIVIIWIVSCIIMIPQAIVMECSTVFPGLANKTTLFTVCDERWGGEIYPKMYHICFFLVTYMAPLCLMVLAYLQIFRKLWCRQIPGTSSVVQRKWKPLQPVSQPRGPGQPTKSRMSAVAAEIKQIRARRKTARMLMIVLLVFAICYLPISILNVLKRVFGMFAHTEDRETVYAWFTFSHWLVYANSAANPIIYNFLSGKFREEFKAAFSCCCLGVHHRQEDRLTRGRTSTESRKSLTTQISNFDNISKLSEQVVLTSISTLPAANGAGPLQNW
Experiment: Measurement of orexin type 2 receptor agonist activity (calcium fluorescence, CHO cells expressing hOX2R)
Assay type: cell-based
Conditions: test compound 3 μM; CHO cells expressing human OX2 receptor; DMSO = 0%, orexin A (human) = 100%
Assay Readout: OX2R agonist activity (3 μM, %)

{"Compound": "CC(C)(C)C(=O)N1CC[C@H](NS(C)(=O)=O)[C@@H]1Cc1cccc(-c2ccccc2)c1 (relative stereo) [Example 227]", "Value Units": "%", "Result Value": 99}
{"Compound": "O=C(C1CCC1)N1CC[C@H](NS(=O)(=O)C2CC2)[C@@H]1Cc1csc(-c2ccccc2)n1 [Example 321]", "Value Units": "%", "Result Value": 104}
{"Compound": "C=C(C)c1cccc(C[C@H]2[C@@H](NS(=O)(=O)C3CC3)CCCN2C(=O)OC(C)C)n1 (relative stereo) [Example 191]", "Value Units": "%", "Result Value": 79}
{"Compound": "CCS(=O)(=O)N[C@H]1CCN(C(=O)C(C)(C)O)[C@H]1Cc1cccc(-c2cc(F)cc(F)c2)c1F [Example 435]", "Value Units": "%", "Result Value": 107}
{"Compound": "CS(=O)(=O)N[C@H]1CCN(C(=O)OC2CC2)[C@H]1Cc1cccc(-c2ccccc2)c1 (relative stereo) [Example 108]", "Value Units": "%", "Result Value": 69}
{"Compound": "COC(=O)N1CCC[C@H](NS(C)(=O)=O)[C@@H]1Cc1cccc(-c2ccccc2)c1 (relative stereo) [Example 11]", "Value Units": "%", "Result Value": 80}
{"Compound": "CS(=O)(=O)N[C@H]1CCN(C(=O)N2CCC2)[C@H]1Cc1csc(-c2cc(F)cc(F)c2)n1 [Example 340]", "Value Units": "%", "Result Value": 103}
{"Compound": "CS(=O)(=O)N[C@H]1CCN(C(=O)C2CCC2)[C@H]1Cc1cc(F)cc(-c2cccc(F)c2)c1 (relative stereo) [Example 300]", "Value Units": "%", "Result Value": 99}
{"Compound": "CC(C)C(=O)N1CCC[C@H](NS(C)(=O)=O)[C@@H]1Cc1cccc(-c2ccccc2)c1 (relative stereo) [Example 95]", "Value Units": "%", "Result Value": 97}
{"Compound": "CS(=O)(=O)N[C@H]1CCN(C(=O)C2CCC2)[C@H]1Cc1csc(-c2ccccc2F)n1 (relative stereo) [Example 255]", "Value Units": "%", "Result Value": 101}
{"Compound": "CS(=O)(=O)N[C@H]1CCN(C(=O)C2CC2)[C@H]1Cc1cccc(-c2ccccc2)c1 (relative stereo) [Example 206]", "Value Units": "%", "Result Value": 94}
{"Compound": "CCS(=O)(=O)N[C@H]1CCN(C(=O)N2CCC2)[C@H]1Cc1cccc(-c2cc(F)cc(F)c2)c1 [Example 362]", "Value Units": "%", "Result Value": 103}
{"Compound": "CCS(=O)(=O)N[C@H]1CCN(C(=O)N(C)C)[C@H]1Cc1cccc(-c2cc(F)cc(F)c2)c1F [Example 399]", "Value Units": "%", "Result Value": 107}
{"Compound": "CCS(=O)(=O)N[C@H]1CCN(C(=O)C2(O)CCC2)[C@H]1Cc1csc(-c2cc(F)cc(F)c2)n1 (relative stereo) [Example 317]", "Value Units": "%", "Result Value": 103}
{"Compound": "CCCS(=O)(=O)N[C@H]1CCCN(C(=O)OC(C)C)[C@H]1Cc1cccc(-c2ccccc2)n1 (relative stereo) [Example 173]", "Value Units": "%", "Result Value": 68}
{"Compound": "CC(C)(O)C(=O)N1CC[C@H](NS(=O)(=O)CF)[C@@H]1Cc1cccc(-c2cccc(F)c2)c1F [Example 417]", "Value Units": "%", "Result Value": 110}
{"Compound": "CCNC(=O)N1CCC[C@H](NS(C)(=O)=O)[C@@H]1Cc1cccc(Oc2ccccc2)c1 (relative stereo) [Example 10]", "Value Units": "%", "Result Value": 91}
{"Compound": "CC1(C(=O)N2CC[C@H](NS(C)(=O)=O)[C@@H]2Cc2cccc(-c3cccc(F)c3)c2F)CC1 [Example 351]", "Value Units": "%", "Result Value": 106}
{"Compound": "CC1(C(=O)N2CC[C@H](NS(C)(=O)=O)[C@@H]2Cc2cccc(-c3cccc(F)c3)c2)CCC1 [Example 305]", "Value Units": "%", "Result Value": 105}
{"Compound": "CS(=O)(=O)N[C@H]1CCN(C(=O)C2CCO2)[C@H]1Cc1cccc(-c2cc(F)cc(F)c2)c1F (stereo partly drawn) [Example 441]", "Value Units": "%", "Result Value": 99}
{"Compound": "CC(C)OC(=O)N1CCC[C@H](NS(C)(=O)=O)[C@@H]1Cc1cccc(-c2cccc(F)c2F)c1 (relative stereo) [Example 116]", "Value Units": "%", "Result Value": 106}
